# Tested on: 519858-162-T-J1-PDC complex spheroid viability
# experiment.description: Anticancer human tumor 519858-162-T-J1-PDC patient-derived colon adenocarcinoma cell line growth inhibition [GQUAD]
# details: second compound 0.0316 µM; first compound 3.16 µM; active compounds read low
readout.label: viability, T/C (%)
Answers are plain numbers, in %.

1. CC(=O)O[C@H]1C(=O)[C@@]2(C)[C@H]([C@H](OC(=O)c3ccccc3)[C@]3(O)C[C@H](OC(=O)[C@H](O)[C@@H](NC(=O)c4ccccc4)c4ccccc4)C(C)=C1C3(C)C)[C@]1(OC(C)=O)CO[C@@H]1C[C@@H]2O + Cc1cnc(CNC(=O)c2c(=O)c3ccc(N4CCCN(C)CC4)nc3n3c2sc2ccccc23)cn1 = 92.5

Could you now consider this next compound?
Item: CC1COCCN1c1cc(C2(S(C)(=N)=O)CC2)nc(-c2ccnc3[nH]ccc23)n1 (configuration not stated) + Cc1cnc(CNC(=O)c2c(=O)c3ccc(N4CCCN(C)CC4)nc3n3c2sc2ccccc23)cn1 | viability, T/C: 48

----------
# Test system: 519858-162-T-J1-PDC complex spheroid viability
# experiment.description: Anticancer human tumor 519858-162-T-J1-PDC cell line growth inhibition [GQUAD];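 note: spheroids exposed to compounds for 7 days; 100% = DMSO vehicle control viability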
# details: second compound 0.316 µM; first compound 10 µM; active compounds read low
readout.label: viability, T/C

Consider the following illustrative entries.
1) CC(C)(O)C1CCC(Nc2ccc3ncc(-c4cccc(C(F)(F)F)c4)n3n2)CC1 (stereo not drawn) + Cc1[nH]c2ccc(F)cc2c1-c1nc2c3cccnc3c3ncccc3c2[nH]1 = 24.8%
2) CC1COCCN1c1cc(C2(S(C)(=N)=O)CC2)nc(-c2ccnc3[nH]ccc23)n1 (stereo not drawn) + CN(C)c1ccc(Nc2c3ccc(NC(=O)CCN4CCCC4)cc3nc3cc(NC(=O)CCN4CCCC4)ccc23)cc1 = 100%

Field: next molecule
Entry CC1COCCN1c1cc(C2(O)CC3CCC(C2)O3)c2cnn(-c3ccn[nH]3)c2n1 (stereo not drawn) + Cc1cnc(CNC(=O)c2c(=O)c3ccc(N4CCCN(C)CC4)nc3n3c2sc2ccccc23)cn1 — recorded viability, T/C = 29.9%

----------
# Tested on: 519858-162-T-J1-PDC complex spheroid viability
# experiment.description: Anticancer human tumor 519858-162-T-J1-PDC cell line growth inhibition [GQUAD];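 note: spheroids exposed to compounds for 7 days; 100% = DMSO vehicle control viability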
# details: second compound 1 µM; first compound 3.16 µM; active compounds read low
readout.label: viability, T/C (%)
One number for each entry, in %.

1. C#Cc1c(F)ccc2cc(O)cc(-c3ncc4c(N5CC6CCC(C5)N6)nc(OCC56CCCN5CC(F)C6)nc4c3F)c12 (stereo not given) + Cc1cnc(CNC(=O)c2c(=O)c3ccc(N4CCCN(C)CC4)nc3n3c2sc2ccccc23)cn1 = 48.8
2. COc1cc(C2c3cc4c(cc3C(OC3OC5COC(C)OC5C(O)C3O)C3COC(=O)C23)OCO4)cc(OC)c1O (stereo not given) + Cc1cnc(CNC(=O)c2c(=O)c3ccc(N4CCCN(C)CC4)nc3n3c2sc2ccccc23)cn1 = 55.2
3. CC(C)(O)C1CCC(Nc2ccc3ncc(-c4cccc(C(F)(F)F)c4)n3n2)CC1 (stereo not given) + Cc1cnc(CNC(=O)c2c(=O)c3ccc(N4CCCN(C)CC4)nc3n3c2sc2ccccc23)cn1 = 42.4
4. Nc1ccn(C2OC(CO)C(O)C2(F)F)c(=O)n1 (stereo not given) + Cc1[nH]c2ccc(F)cc2c1-c1nc2c3cccnc3c3ncccc3c2[nH]1 = 84.2
5. CCCS(=O)(=O)Nc1ccc(F)c(C(=O)c2c[nH]c3ncc(-c4ccc(Cl)cc4)cc23)c1F + Cc1[nH]c2ccc(F)cc2c1-c1nc2c3cccnc3c3ncccc3c2[nH]1 = 115
6. COc1cc(C2c3cc4c(cc3C(OC3OC5COC(C)OC5C(O)C3O)C3COC(=O)C23)OCO4)cc(OC)c1O (stereo not given) + Cc1[nH]c2ccc(F)cc2c1-c1nc2c3cccnc3c3ncccc3c2[nH]1 = 81
7. CC1COCCN1c1cc(-c2ccnn2C)c2ccnc(-c3ccn[nH]3)c2n1 (stereo not given) + Cc1cnc(CNC(=O)c2c(=O)c3ccc(N4CCCN(C)CC4)nc3n3c2sc2ccccc23)cn1 = 28.2
8. CC1COCCN1c1cc(C2(S(C)(=N)=O)CC2)nc(-c2ccnc3[nH]ccc23)n1 (stereo not given) + Cc1cnc(CNC(=O)c2c(=O)c3ccc(N4CCCN(C)CC4)nc3n3c2sc2ccccc23)cn1 = 48.2
9. C#Cc1c(F)ccc2cc(O)cc(-c3ncc4c(N5CC6CCC(C5)N6)nc(OCC56CCCN5CC(F)C6)nc4c3F)c12 (stereo not given) + CN(C)c1ccc(Nc2c3ccc(NC(=O)CCN4CCCC4)cc3nc3cc(NC(=O)CCN4CCCC4)ccc23)cc1 = 91.7

Turning to the following compound.
Value of viability, T/C reported for the compound Cc1cccc(N(C)C(=O)C2C(O)CCN2c2nc(C)cc(C(F)(F)F)c2C#N)c1 (stereo not given) + CN(C)c1ccc(Nc2c3ccc(NC(=O)CCN4CCCC4)cc3nc3cc(NC(=O)CCN4CCCC4)ccc23)cc1 is 88.8
